Target: GST-Dm-Relish (Drosophila melanogaster, UniProt Q94527 99-473)
Sequence: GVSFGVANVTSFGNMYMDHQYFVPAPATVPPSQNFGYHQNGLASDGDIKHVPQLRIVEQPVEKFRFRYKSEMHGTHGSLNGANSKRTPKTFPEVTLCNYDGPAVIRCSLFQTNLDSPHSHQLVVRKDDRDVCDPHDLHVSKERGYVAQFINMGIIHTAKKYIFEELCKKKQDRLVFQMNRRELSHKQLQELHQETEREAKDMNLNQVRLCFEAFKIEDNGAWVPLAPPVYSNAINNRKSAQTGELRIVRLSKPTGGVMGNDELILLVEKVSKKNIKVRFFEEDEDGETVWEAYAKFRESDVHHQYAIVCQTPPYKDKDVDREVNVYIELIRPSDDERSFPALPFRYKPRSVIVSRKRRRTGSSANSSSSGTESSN
Experiment: protein-binding microarray (PBM); PBM: ~300 nM protein, 6 mM HEPES pH 7.8, 80 mM KCl, 0.5 mM EDTA, 0.5 mM EGTA, 6% glycerol, 35 ng/ul poly-dIdC, 1% milk, 1 h, room temperature; Ap Aiptasia and Nv Nematostella (sea anemones) / Co Capsaspora / Aq Amphimedon (sponge) / Dm Drosophila / Hu human; RHD is the Rel homology domain; high values mean tight binding
Conditions: dsDNA, one strand shown
Binary call on binding signal: Condition met from 3 z-score upward, Condition not met beneath that.

These solved cases illustrate the format of a correct answer.
{"Residue string": "CCGATTAACATCACGGGATCTCCTGATGTTAATCGGGTCTTGATTCGCTTGACGCTGCTG", "Group label": "Condition met"}
{"Residue string": "CCGATTAACATCATCCGGGAAAATGATGTTAATCGGGTCTTGATTCGCTTGACGCTGCTG", "Group label": "Condition not met"}
{"Residue string": "CCGATTAACATCAAAGCATCCCCTGATGTTAATCGGGTCTTGATTCGCTTGACGCTGCTG", "Group label": "Condition met"}
{"Residue string": "CCGATTAACATCAACCCCAGCTCTGATGTTAATCGGGTCTTGATTCGCTTGACGCTGCTG", "Group label": "Condition not met"}

Qu. Could you verify whether the entry CCGATTAACATCAAAATTTACCGTGATGTTAATCGGGTCTTGATTCGCTTGACGCTGCTG shows binding signal of no less than 3 z-score?
Ans. Condition met

Qu. Quick check, binding signal >= 3 z-score? CCGATTAACATCAGGGGTTTTGATGATGTTAATCGGGTCTTGATTCGCTTGACGCTGCTG
Ans. Condition met

Origin of the recorded values: paper PMC5700166
